- System: human osteosarcoma cell line SJSA-1
- Test Description: Inhibition of proliferation of human osteosarcoma cell line SJSA-1 (DAPI staining, In Cell Analyzer)
- Condition Summary: Homo sapiens, SJSA-1, 72 h, read-out: IC50 (nM), inhibitory activity on proliferation of human osteosarcoma cell line SJSA-1, SJSA-1, incubated 72 h
Endpoint Label: IC50 (nM)
Your answer should be a plain number; it is taken to be in nM.

[
  {
    "Item Smiles": "COc1ccc(-c2nc3c(n2C(C)C)[C@@]2(C(=O)Nc4cc(Cl)ccc42)N(c2cc(Cl)ccc2C)C3=O)c(OC)c1",
    "Unit Label": "nM",
    "IC50": 7.39
  },
  {
    "Item Smiles": "CCc1ccc(-c2nc3c(n2C(C)C)[C@]2(C(=O)Nc4cc(Cl)ccc42)N(c2cc(Cl)ccc2C)C3=O)c(OC)c1",
    "Unit Label": "nM",
    "IC50": 4890
  }
]

Please look at the following compound next.
Enquiry: Bench note: what IC50 did "COc1ncc(-c2nc3c(n2C(C)C)[C@@]2(C(=O)Nc4cc(Cl)ccc42)N(c2ccc(C)c(Cl)c2)C3=O)c(OC)n1" show?
Return: 48.1

Data origin: patent US11339171B2
